Test system: MCF7
experimental.details: Cytotoxicity against human MCF7 cells assessed as inhibition rate at 5 uM measured after […] hrs by CCK-8 assay relative to control
Format: functional
measurement.kind: inhibition at 5 µM

• COc1cc2c(cc1OC)CN(C(=O)c1cc3cc(-c4ccc(NC(=O)c5ccccc5)cc4)ccc3[nH]1)CC2 = 15.5%
• COc1cc2c(cc1OC)CN(C(=O)c1cc3cc(-c4ccc(NC(=O)c5ccccc5F)cc4)ccc3[nH]1)CC2 = 13.9%
• COc1cc2c(cc1OC)CN(C(=O)c1cc3cc(-c4ccc(NC(=O)c5ccc(Cl)cc5)cc4)ccc3n1Cc1cccc(Cl)c1)CC2 = 1.3%
• COc1cc2c(cc1OC)CN(C(=O)c1cc3cc(-c4ccc(NC(=O)c5ccc(OC(C)(C)C)cc5)cc4)ccc3[nH]1)CC2 = 15.9%
• COc1cc2c(cc1OC)CN(C(=O)c1cc3cc(-c4ccc(NC(=O)c5ccc(Cl)cc5)cc4)ccc3n1Cc1cc(C(F)(F)F)cc(C(F)(F)F)c1)CC2 = 3.8%
• COc1ccc(Cn2c(C(=O)N3CCc4cc(OC)c(OC)cc4C3)cc3cc(-c4ccc(NC(=O)c5ccc(Cl)cc5)cc4)ccc32)cc1 = 3.2%

----------
target: ATP-dependent translocase ABCB1 (Homo sapiens)
experimental.details: Inhibition of P-gp-mediated multidrug resistance in doxorubicin-resistant human MCF7/ADR cells assessed as fold reversal of resistance by measuring doxorubicin IC50 incubated for 48 hrs by CCK-8 assay relative to doxorubicin IC50 in absence of compound
Type: cell-based
reported.conditions: nci-adr-res
Reported fold change (FC) values for the following molecules.
measurement.kind: fold change (FC)

• COc1cc2c(cc1OC)CN(C(=O)c1cc3cc(-c4ccc(NC(=O)c5ccc(Cl)cc5)cc4)ccc3n1Cc1cccc(F)c1)CC2 = 37.6
• CCCCOc1ccc(-c2ccc3[nH]c(C(=O)N4CCc5cc(OC)c(OC)cc5C4)cc3c2)cc1 = 18.3
• COc1cc2c(cc1OC)CN(C(=O)c1cc3cc(-c4ccccc4F)ccc3[nH]1)CC2 = 17
• COc1cc2c(cc1OC)CN(C(=O)c1cc3cc(-c4ccc([N+](=O)[O-])cc4)ccc3[nH]1)CC2 = 55.8
• COc1cccc(Cn2c(C(=O)N3CCc4cc(OC)c(OC)cc4C3)cc3cc(-c4ccc(NC(=O)c5ccc(Cl)cc5)cc4)ccc32)c1 = 26.5
• COc1cc2c(cc1OC)CN(C(=O)c1cc3cc(-c4ccc(NC(=O)c5ccc(Cl)cc5)cc4)ccc3n1Cc1ccc(C(F)(F)F)cc1)CC2 = 29
• COc1ccc(OC)c(-c2ccc3[nH]c(C(=O)N4CCc5cc(OC)c(OC)cc5C4)cc3c2)c1 = 108.7
• COc1ccc(C(=O)Nc2ccc(-c3ccc4[nH]c(C(=O)N5CCc6cc(OC)c(OC)cc6C5)cc4c3)cc2)cc1OC = 486.9

----------
target: ATP-dependent translocase ABCB1 (Homo sapiens, UniProt P08183)
Sequence (P08183 whole entry): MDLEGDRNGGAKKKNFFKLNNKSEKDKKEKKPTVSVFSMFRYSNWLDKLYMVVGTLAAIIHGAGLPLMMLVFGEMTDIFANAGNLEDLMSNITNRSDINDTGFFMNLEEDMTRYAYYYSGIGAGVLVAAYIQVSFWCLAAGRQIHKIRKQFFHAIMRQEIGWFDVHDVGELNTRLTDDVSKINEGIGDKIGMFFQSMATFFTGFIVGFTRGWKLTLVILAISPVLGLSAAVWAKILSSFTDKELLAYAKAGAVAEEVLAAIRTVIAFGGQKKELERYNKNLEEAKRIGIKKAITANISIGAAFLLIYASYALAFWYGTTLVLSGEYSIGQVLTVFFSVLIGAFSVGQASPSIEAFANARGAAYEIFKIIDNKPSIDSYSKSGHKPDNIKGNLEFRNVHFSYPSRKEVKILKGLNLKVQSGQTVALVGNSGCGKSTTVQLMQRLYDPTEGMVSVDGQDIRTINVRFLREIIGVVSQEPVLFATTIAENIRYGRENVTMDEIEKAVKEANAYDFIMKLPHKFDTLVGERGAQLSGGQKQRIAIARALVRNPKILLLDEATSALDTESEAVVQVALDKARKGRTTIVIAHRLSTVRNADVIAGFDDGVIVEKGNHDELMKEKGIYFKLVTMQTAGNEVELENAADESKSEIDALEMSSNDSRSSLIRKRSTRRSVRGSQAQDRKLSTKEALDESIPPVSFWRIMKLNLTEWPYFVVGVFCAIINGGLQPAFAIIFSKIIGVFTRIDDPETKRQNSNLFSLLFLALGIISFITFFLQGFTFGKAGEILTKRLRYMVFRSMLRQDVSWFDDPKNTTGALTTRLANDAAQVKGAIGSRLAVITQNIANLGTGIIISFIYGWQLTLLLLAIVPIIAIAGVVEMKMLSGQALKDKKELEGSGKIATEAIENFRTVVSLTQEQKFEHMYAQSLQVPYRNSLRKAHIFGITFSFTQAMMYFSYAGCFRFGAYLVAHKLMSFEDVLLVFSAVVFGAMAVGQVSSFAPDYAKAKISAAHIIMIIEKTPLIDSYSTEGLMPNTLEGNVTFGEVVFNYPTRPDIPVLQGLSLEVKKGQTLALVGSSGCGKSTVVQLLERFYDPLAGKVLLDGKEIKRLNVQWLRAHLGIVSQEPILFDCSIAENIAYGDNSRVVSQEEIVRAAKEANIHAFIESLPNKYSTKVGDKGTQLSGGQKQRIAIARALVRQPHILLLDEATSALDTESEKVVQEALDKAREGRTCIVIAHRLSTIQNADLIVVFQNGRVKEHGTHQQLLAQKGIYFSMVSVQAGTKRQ
experimental.details: Inhibition of P-gp-mediated multidrug resistance in doxorubicin-resistant human MCF7/ADR cells assessed as fold reversal of resistance by measuring doxorubicin IC50 incubated for 48 hrs by CCK-8 assay relative to doxorubicin IC50 in absence of compound
Assay type: cell-based
reported.conditions: nci-adr-res
measurement.kind: fold change (FC)

- COc1cc2c(cc1OC)CN(C(=O)c1cc3cc(-c4ccc(NC(=O)c5ccc(Cl)cc5)cc4)ccc3n1Cc1cccc(Cl)c1)CC2: 27.5
- COc1cc2c(cc1OC)CN(C(=O)c1cc3cc(-c4ccccc4[N+](=O)[O-])ccc3[nH]1)CC2: 41.9
- CCOc1ccc(C(=O)Nc2ccc(-c3ccc4[nH]c(C(=O)N5CCc6cc(OC)c(OC)cc6C5)cc4c3)cc2)cc1: 333
- COc1cc2c(cc1OC)CN(C(=O)c1cc3cc(-c4ccc(NC(=O)c5ccc(I)cc5)cc4)ccc3[nH]1)CC2: 83
- COc1cc2c(cc1OC)CN(C(=O)c1cc3cc(-c4ccc(Oc5ccccc5)cc4)ccc3[nH]1)CC2: 30
- COc1cc2c(cc1OC)CN(C(=O)c1cc3cc(-c4ccc(NC(=O)c5ccccc5F)cc4)ccc3[nH]1)CC2: 469.8
- COc1cc2c(cc1OC)CN(C(=O)c1cc3cc(-c4ccc(F)cc4)ccc3[nH]1)CC2: 51.3
- COc1cc2c(cc1OC)CN(C(=O)c1cc3cc(-c4ccc(NC(=O)c5cc(OC)c(OC)c(OC)c5)cc4)ccc3[nH]1)CC2: 93.6

----------
target: ATP-dependent translocase ABCB1 (Homo sapiens)
experimental.details: Inhibition of P-gp-mediated multidrug resistance in doxorubicin-resistant human MCF7/ADR cells assessed as fold reversal of resistance by measuring doxorubicin IC50 incubated for 48 hrs by CCK-8 assay relative to doxorubicin IC50 in absence of compound
Assay type: cell-based
reported.conditions: nci-adr-res
Reported fold change (FC) values are given for each entry in this list.
measurement.kind: fold change (FC)

- COc1cc2c(cc1OC)CN(C(=O)c1cc3cc(-c4ccc(NC(=O)c5ccc(Cl)cc5)cc4)ccc3n1Cc1ccc(F)cc1)CC2: 53.5
- COc1cc2c(cc1OC)CN(C(=O)c1cc3cc(-c4ccc(OC(C)C)cc4)ccc3[nH]1)CC2: 24
- COc1cc2c(cc1OC)CN(C(=O)c1cc3cc(-c4ccccc4OC)ccc3[nH]1)CC2: 15.1
- COc1cccc2c1C(=O)c1c(O)c3c(c(O)c1C2=O)C[C@@](O)(C(=O)CO)C[C@@H]3O[C@H]1C[C@H](N)[C@H](O)[C@H](C)O1: 1

----------
target: ATP-dependent translocase ABCB1 (Homo sapiens, UniProt P08183)
experimental.details: Inhibition of P-gp-mediated multidrug resistance in doxorubicin-resistant human MCF7/ADR cells assessed as fold reversal of resistance by measuring doxorubicin IC50 incubated for 48 hrs by CCK-8 assay relative to doxorubicin IC50 in absence of compound
Type: cell-based
reported.conditions: nci-adr-res
Some molecules, each annotated with its measured fold change (FC).
measurement.kind: fold change (FC)

• COc1cc2c(cc1OC)CN(C(=O)c1cc3cc(-c4ccc5c(c4)OCO5)ccc3[nH]1)CC2 = 33.4
• COc1cc2c(cc1OC)CN(C(=O)c1cc3cc(-c4cccc(C)c4)ccc3[nH]1)CC2 = 58.1
• COc1cc2c(cc1OC)CN(C(=O)c1cc3cc(-c4ccc(NC(=O)c5ccccc5Cl)cc4)ccc3[nH]1)CC2 = 241.9
• COc1ccc(-c2ccc3[nH]c(C(=O)N4CCc5cc(OC)c(OC)cc5C4)cc3c2)c(OC)c1 = 112.7
• COc1cc2c(cc1OC)CN(C(=O)c1cc3cc(-c4ccc(NC(=O)c5cccc(F)c5)cc4)ccc3[nH]1)CC2 = 1021.3
• COc1cc2c(cc1OC)CN(C(=O)c1cc3cc(-c4ccc(OC(F)(F)F)cc4)ccc3[nH]1)CC2 = 99.1
• COc1cc2c(cc1OC)CN(C(=O)c1cc3cc(-c4cccc(OC)c4OC)ccc3[nH]1)CC2 = 88.3
• COc1cc2c(cc1OC)CN(C(=O)c1cc3cc(-c4ccc(N)cc4)ccc3[nH]1)CC2 = 34.9

----------
target: ATP-dependent translocase ABCB1 (Homo sapiens, UniProt P08183)
experimental.details: Inhibition of P-gp-mediated multidrug resistance in doxorubicin-resistant human MCF7/ADR cells assessed as fold reversal of resistance by measuring doxorubicin IC50 incubated for 48 hrs by CCK-8 assay relative to doxorubicin IC50 in absence of compound
Type: cell-based
reported.conditions: nci-adr-res
Mark each entry y if its fold change (FC) sits below 60, and n for all others.

- COc1cc2c(cc1OC)CN(C(=O)c1cc3cc(-c4ccc(C)cc4)ccc3[nH]1)CC2: y
- COc1cc2c(cc1OC)CN(C(=O)c1cc3cc(-c4ccc(NC(=O)c5ccc(Cl)cc5)cc4)ccc3n1Cc1ccccc1C(F)(F)F)CC2: y
- COc1cc2c(cc1OC)CN(C(=O)c1cc3cc(-c4ccc(NC(=O)c5ccc(Cl)cc5)cc4)ccc3n1Cc1ccccc1Cl)CC2: y
- COc1cccc(C(=O)Nc2ccc(-c3ccc4[nH]c(C(=O)N5CCc6cc(OC)c(OC)cc6C5)cc4c3)cc2)c1: n
- COc1cc2c(cc1OC)CN(C(=O)c1cc3cc(-c4ccc(NC(=O)c5ccccc5)cc4)ccc3[nH]1)CC2: n
- COc1cc2c(cc1OC)CN(C(=O)c1cc3cc(-c4cccc([N+](=O)[O-])c4)ccc3[nH]1)CC2: n
- COc1ccc(C(=O)Nc2ccc(-c3ccc4[nH]c(C(=O)N5CCc6cc(OC)c(OC)cc6C5)cc4c3)cc2)cc1: n
- COc1cc2c(cc1OC)CN(C(=O)c1cc3cc(-c4ccccc4C)ccc3[nH]1)CC2: y
- COc1cc2c(cc1OC)CN(C(=O)c1cc3cc(-c4ccc(NC(=O)c5ccc(Cl)cc5)cc4)ccc3n1Cc1ccccc1)CC2: y
- COc1cc2c(cc1OC)CN(C(=O)c1cc3cc(-c4ccc(OC(C)(C)C)cc4)ccc3[nH]1)CC2: y
- COc1cc2c(cc1OC)CN(C(=O)c1cc3cc(-c4ccc(NC(=O)c5ccc(OC(C)(C)C)cc5)cc4)ccc3[nH]1)CC2: n
- CCOc1ccc(-c2ccc3[nH]c(C(=O)N4CCc5cc(OC)c(OC)cc5C4)cc3c2)cc1: y
- COc1cc2c(cc1OC)CN(C(=O)c1cc3cc(-c4ccc(NC(=O)c5ccccc5OC)cc4)ccc3[nH]1)CC2: y

Source of measurements: ChEMBL document CHEMBL5380848
